Where these numbers come from: patent US12643913B2

assay: Pharmacokinetics after oral gavage to male beagle dogs with different pre-treatments (Amgen study 150528); format: in vivo; conditions: male, beagle, dog, plasma, po, 3 mg/kg, Phase 4, pentagastrin pre-treatment + P-gp inhibitor GF120918; 3 mg/kg PO, male beagle dogs
Measured endpoint: CL/F (mL/min/kg)
I only need the number, in mL/min/kg, no unit after it.

Exercise: Please look up its CL/F: CO[C@]1(CN2CCN3CCCC[C@@H]3C2)/C=C/C[C@H](C)[C@@H](C)S(=O)(=O)NC(=O)c2ccc3c(c2)N(C[C@@H]2CC[C@H]21)C[C@@]1(CCCc2cc(Cl)ccc21)CO3 [AMG 397 Crystalline Hydrate]
Key: 5.17
